Tested on: Candida albicans
PROTOCOL_DETAILS: Antifungal activity against Candida albicans IFO 0583 at 200 ug/disc after 48 hrs by agar disc diffusion method
Format: functional
PROTOCOL_CONDITIONS: IFO 0583, 48 h, read-out: DIZ
MEASURED_QUANTITY: zone of inhibition at 200 µg/disc

Given the entry `Cc1ccc(Sc2nc(SCc3ccc(Cl)cc3)nc(-c3ccccc3)c2C#N)cc1` , what zone of inhibition at 200 µg/disc was observed with Candida albicans?
< 10 mm

Given the entry `N#Cc1c(-c2ccccc2)nc(SCc2ccc([N+](=O)[O-])o2)[nH]c1=O` , what zone of inhibition at 200 µg/disc was observed with Candida albicans?
11 mm

Given the entry `CCSCCSc1nc(-c2ccccc2)c(C#N)c(=O)[nH]1` , what zone of inhibition at 200 µg/disc was observed with Candida albicans?
12 mm

Given the entry `CSCCSc1nc(-c2ccccc2)c(C#N)c(=O)[nH]1` , what zone of inhibition at 200 µg/disc was observed with Candida albicans?
14 mm

Given the entry `N#Cc1c(-c2ccccc2)nc(SCc2ccc([N+](=O)[O-])cc2)[nH]c1=O` , what zone of inhibition at 200 µg/disc was observed with Candida albicans?
< 10 mm
